- tested_target: Mtr4 archless (Saccharomyces cerevisiae)
- Sequence: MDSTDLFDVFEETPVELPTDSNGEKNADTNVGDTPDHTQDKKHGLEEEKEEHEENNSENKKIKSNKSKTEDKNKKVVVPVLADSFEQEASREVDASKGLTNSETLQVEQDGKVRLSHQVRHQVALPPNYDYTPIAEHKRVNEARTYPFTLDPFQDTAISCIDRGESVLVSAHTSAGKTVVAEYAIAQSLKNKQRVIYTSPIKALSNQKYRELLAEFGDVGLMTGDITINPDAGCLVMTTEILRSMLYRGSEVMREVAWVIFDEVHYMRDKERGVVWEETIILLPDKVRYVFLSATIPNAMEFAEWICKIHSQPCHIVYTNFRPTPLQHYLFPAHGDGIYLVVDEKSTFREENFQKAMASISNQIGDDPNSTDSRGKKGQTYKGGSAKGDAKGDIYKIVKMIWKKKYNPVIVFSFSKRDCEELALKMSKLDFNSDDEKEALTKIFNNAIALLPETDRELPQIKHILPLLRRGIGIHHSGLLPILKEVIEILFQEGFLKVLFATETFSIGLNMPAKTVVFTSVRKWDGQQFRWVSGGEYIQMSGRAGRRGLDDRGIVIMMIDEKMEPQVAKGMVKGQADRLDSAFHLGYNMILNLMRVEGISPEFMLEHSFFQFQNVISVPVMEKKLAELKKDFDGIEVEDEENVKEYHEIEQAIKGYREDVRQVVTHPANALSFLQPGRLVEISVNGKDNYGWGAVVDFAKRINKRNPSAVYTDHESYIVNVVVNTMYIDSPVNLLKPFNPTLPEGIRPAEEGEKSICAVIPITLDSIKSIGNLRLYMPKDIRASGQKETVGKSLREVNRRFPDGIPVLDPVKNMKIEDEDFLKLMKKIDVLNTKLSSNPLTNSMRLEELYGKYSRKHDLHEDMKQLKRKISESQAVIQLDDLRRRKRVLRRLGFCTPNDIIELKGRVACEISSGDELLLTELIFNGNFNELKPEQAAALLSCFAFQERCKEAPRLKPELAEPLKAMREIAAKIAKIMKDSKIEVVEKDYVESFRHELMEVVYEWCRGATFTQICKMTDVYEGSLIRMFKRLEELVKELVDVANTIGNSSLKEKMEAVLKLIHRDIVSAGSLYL
- procedure_text: fluorescence anisotropy
- test_settings: FA: 40 mM MOPS pH 6.5, 100 mM NaCl, 0.5 mM MgCl2, 5% glycerol, 0.01% NP-40 substitute, 2 mM DTT, 60 nM RNA, 30 C; EMSA conditions not in material
experimental_readout: Kd (µM)
Your answer is read as µM, so omit the unit and give the number.

Query string: Entry GCGUCUUUACGGUGCUUAAAAA / AGCACCGUAAAGACGC [poly(A) substrate R22A/R16, fluorescein] : reported Kd = ?
Result string: 4.5
